Target: CDK2/Cyclin A (Homo sapiens, UniProt P24941)
Test: CDK2/cyclin A inhibitory assay, Z'-LYTE FRET kinase assay
Format: biochemical
Details: concentration of 100 micro molar; 1000 ng/ml kinase, 1000 µM ATP
% inhibition on CDK2/cyclin A reference
assay-metric: % inhibition on CDK2/cyclin A (%)

[[record]]
chemical_string = "COc1ccc(/C=C2\\Oc3c(c(OC)cc(OC)c3C3=CCN(C(C)C)CC3)C2=O)cc1OC"
observed_value = 42.787

[[record]]
chemical_string = "CCN1CC=C(c2c(OC)cc(OC)c3c2O/C(=C\\c2ccc4ccccc4c2)C3=O)CC1"
observed_value = 32.676

[[record]]
chemical_string = "COc1ccc(/C=C2\\Oc3c(c(OC)cc(OC)c3C3=CCN(C(C)C)CC3)C2=O)cc1"
observed_value = 39.054

[[record]]
chemical_string = "COc1cc(OC)c(C2=CCN(C(C)C)CC2)c2c1C(=O)/C(=C/c1ccc3ccccc3c1)O2"
observed_value = 38.987

[[record]]
chemical_string = "COc1ccc(/C=C2\\Oc3c(c(OC)cc(OC)c3C3=CCN(C)CC3)C2=O)cc1OC"
observed_value = 26.113

